biological target: Beta-secretase 1 (Homo sapiens, UniProt P56817)
Sequence (P56817 whole entry): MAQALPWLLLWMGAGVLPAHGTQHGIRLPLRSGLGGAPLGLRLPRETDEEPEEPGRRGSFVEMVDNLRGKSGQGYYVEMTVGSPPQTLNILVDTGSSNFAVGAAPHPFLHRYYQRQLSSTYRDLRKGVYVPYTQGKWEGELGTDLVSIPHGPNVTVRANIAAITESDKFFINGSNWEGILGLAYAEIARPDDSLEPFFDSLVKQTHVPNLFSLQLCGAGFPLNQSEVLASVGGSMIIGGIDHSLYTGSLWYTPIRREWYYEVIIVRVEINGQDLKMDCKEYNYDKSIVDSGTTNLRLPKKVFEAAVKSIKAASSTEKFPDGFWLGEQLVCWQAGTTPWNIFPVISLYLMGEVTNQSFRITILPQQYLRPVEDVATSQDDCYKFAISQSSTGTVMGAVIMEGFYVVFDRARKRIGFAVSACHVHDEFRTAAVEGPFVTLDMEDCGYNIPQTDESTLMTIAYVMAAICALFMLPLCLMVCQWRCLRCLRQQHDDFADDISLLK
measured endpoint: pIC50
Give bare numbers, as −log10 of the molar value.

Completed entries (count: 5):
{"entry smiles": "C(=N\\C1CCN(Cc2ccccc2)CC1)/c1ccccc1", "pIC50": 5.47}
{"entry smiles": "Clc1ccc(CNC2CCN(Cc3ccccc3)CC2)c(Cl)c1", "pIC50": 5.52}
{"entry smiles": "FC(F)(F)Oc1ccc(/C=N/C2CCN(Cc3ccccc3)CC2)cc1", "pIC50": 5.74}
{"entry smiles": "Oc1ccc(CNC2CCN(Cc3ccccc3)CC2)cc1", "pIC50": 5.00}
{"entry smiles": "O=[N+]([O-])c1ccc(CNC2CCN(Cc3ccccc3)CC2)cc1", "pIC50": 6.37}

For each of the compounds below, state pIC50.
1. Fc1ccc(CNC2CCN(Cc3ccccc3)CC2)cc1
2. FC(F)(F)c1ccc(CNC2CCN(Cc3ccccc3)CC2)cc1
3. Fc1ccc(/C=N/C2CCN(Cc3ccccc3)CC2)c(F)c1
4. Oc1ccc(/C=N/C2CCN(Cc3ccccc3)CC2)c(O)c1
5. Clc1ccc(/C=N/C2CCN(Cc3ccccc3)CC2)cc1

A.
[6.26, 6.66, 5.46, 5.00, 5.77]

For each of the compounds below, state pIC50.
1. COc1cc(/C=N/C2CCN(Cc3ccccc3)CC2)cc(OC)c1OC
2. COc1cc(CNC2CCN(Cc3ccccc3)CC2)cc(OC)c1OC
3. FC(F)(F)c1ccc(/C=N/C2CCN(Cc3ccccc3)CC2)cc1
4. Oc1ccc(CNC2CCN(Cc3ccccc3)CC2)c(O)c1
5. Fc1ccc(/C=N/C2CCN(Cc3ccccc3)CC2)cc1
6. Oc1ccc(/C=N/C2CCN(Cc3ccccc3)CC2)cc1

A.
1. 4.85
2. 4.89
3. 6.55
4. 5.23
5. 5.82
6. 4.92

For each of the compounds below, state pIC50.
1. c1ccc(CNC2CCN(Cc3ccccc3)CC2)cc1
2. O=[N+]([O-])c1ccc(/C=N/C2CCN(Cc3ccccc3)CC2)cc1

A.
[5.54, 6.14]

For each of the compounds below, state pIC50.
1. Cc1cccc(/C=N/C2CCN(Cc3ccccc3)CC2)c1
2. Cc1ccc(/C=N/C2CCN(Cc3ccccc3)CC2)cc1
3. Clc1ccc(/C=N/C2CCN(Cc3ccccc3)CC2)c(Cl)c1
4. Oc1ccccc1/C=N/C1CCN(Cc2ccccc2)CC1
5. Cc1cccc(CNC2CCN(Cc3ccccc3)CC2)c1
6. COc1cccc(/C=N/C2CCN(Cc3ccccc3)CC2)c1OC
7. Clc1ccc(CNC2CCN(Cc3ccccc3)CC2)cc1

A.
1. 5.48
2. 4.72
3. 5.41
4. 5.57
5. 5.59
6. 5.20
7. 6.18

* * *

test: Tmax in Wistar rat at 10 mg/kg, po measured up to 0 to 72 hrs; type: ADME, organism-based; settings: in vivo
measured endpoint: Tmax (h)
Answers are plain numbers, in h.

Q. Look up Tmax of FC(F)(F)c1ccc(CNC2CCN(Cc3ccccc3)CC2)cc1 and report it.
A. 5.3

* * *

What IC50 was measured for each of the following?
molecular target: UniProt P06276; test: Inhibition of human serum butyrylcholinesterase using BTCI as substrate pre-incubated for 10 mins followed by substrate addition and measured for 6 mins by Ellman's method
Sequence (P06276 whole entry): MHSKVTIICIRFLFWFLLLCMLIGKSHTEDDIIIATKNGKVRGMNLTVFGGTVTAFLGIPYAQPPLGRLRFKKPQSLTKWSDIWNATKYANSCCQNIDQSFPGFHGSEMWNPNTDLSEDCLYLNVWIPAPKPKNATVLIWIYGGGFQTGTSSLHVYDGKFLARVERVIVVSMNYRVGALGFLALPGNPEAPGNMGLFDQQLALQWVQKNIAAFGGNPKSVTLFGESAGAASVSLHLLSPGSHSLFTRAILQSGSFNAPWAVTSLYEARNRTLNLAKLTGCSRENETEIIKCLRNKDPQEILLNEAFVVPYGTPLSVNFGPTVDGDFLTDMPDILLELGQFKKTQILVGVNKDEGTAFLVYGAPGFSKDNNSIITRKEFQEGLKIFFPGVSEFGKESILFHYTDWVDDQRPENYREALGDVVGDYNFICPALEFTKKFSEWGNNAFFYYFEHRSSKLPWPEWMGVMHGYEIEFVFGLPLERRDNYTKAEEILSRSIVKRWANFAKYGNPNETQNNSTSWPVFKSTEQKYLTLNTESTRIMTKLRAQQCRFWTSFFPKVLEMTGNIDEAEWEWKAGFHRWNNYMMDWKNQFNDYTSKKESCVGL
Give bare numbers, in µM.

{"entry smiles": "FC(F)(F)c1ccc(/C=N/C2CCN(Cc3ccccc3)CC2)cc1", "measured endpoint": "IC50", "test result": 3.9}
{"entry smiles": "O=[N+]([O-])c1ccc(CNC2CCN(Cc3ccccc3)CC2)cc1", "measured endpoint": "IC50", "test result": 7.8}
{"entry smiles": "FC(F)(F)Oc1ccc(/C=N/C2CCN(Cc3ccccc3)CC2)cc1", "measured endpoint": "IC50", "test result": 5.5}

Q. Look up IC50 of Oc1ccc(/C=N/C2CCN(Cc3ccccc3)CC2)c(O)c1 and report it.
A. 19

The values you see were collected from ChEMBL document CHEMBL4433202.
